- Tested on: HRE-bla ME-180 cells
- ASSAY_REMARKS: Reporter gene assay (HRE-bla ME-180 HIF reporter, GeneBLAzer)
- Format: cell-based, human
- PROTOCOL_CONDITIONS: 18 h; at top conc; 24 hrs normoxia
Bridge positions count the residues as written; N and C are the ends. Square brackets hold non-standard residues; d marks the D form. Peptide text beside a SMILES is read from it. R8 = C=CCCCCCC[C@@](C)(N)C(=O)O; S5 = C=CCCC[C@](C)(N)C(=O)O; Nle = CCCC[C@H](N)C(=O)O
READOUT_KIND: 18 h Avg % max inhibition at top conc (HIF Rptr-24 hrs normoxia) (μM)

{"COMPOUND": "CCCC[C@H](NC(=O)[C@H](Cc1ccccc1)NC(=O)[C@@H](NC(=O)[C@H](C)NC(=O)[C@H](CCC(N)=O)NC(=O)[C@H](CC(=O)O)NC(=O)[C@@H](NC(=O)[C@H](Cc1ccccc1)NC(C)=O)[C@@H](C)CC)C(C)C)C(=O)N[C@@]1(C)CCCC=CCCC[C@@](C)(C(=O)N[C@@H](CCCC)C(=O)N[C@@H](C)C(=O)N[C@@H](CC(C)C)C(=O)N[C@@H](CC(C)C)C(N)=O)NC(=O)[C@H]([C@@H](C)CC)NC(=O)[C@H](C(C)C)NC(=O)[C@H](CO)NC1=O [SP-252] (Ac-FIDQAVF[Nle][S5]SVI[S5][Nle]ALL-NH2; staple 9-13)", "VAL": "++++ (≥50: ++++)"}
{"COMPOUND": "CCCC[C@H](NC(=O)[C@H](CCC(=O)O)NC(=O)[C@]1(C)CCCC=CCCCCCC[C@@](C)(NC(=O)[C@H](CCC(=O)O)NC(=O)[C@H](C)NC(=O)[C@@H](NC(=O)[C@H](Cc2ccccc2)NC(C)=O)[C@@H](C)CC)C(=O)N[C@@H](C(C)C)C(=O)N[C@@H](CC(C)C)C(=O)N[C@@H](CCCC)C(=O)N[C@@H](CO)C(=O)N[C@@H](CC(C)C)C(=O)N[C@@H](C(C)C)C(=O)N1)C(=O)N[C@@H](C)C(=O)N[C@@H](CC(C)C)C(N)=O [SP-197] (Ac-FIAE[R8]VL[Nle]SLV[S5]E[Nle]AL-NH2; staple 5-12)", "VAL": "++++ (≥50: ++++)"}

* * *

- System: HRE-bla ME-180 cells
- ASSAY_REMARKS: Reporter gene assay (HRE-bla ME-180 HIF reporter, GeneBLAzer)
- Assay type: cell-based, human
- PROTOCOL_CONDITIONS: 18 h; at top conc; 24 hrs normoxia
Bridge positions count the residues as written; N and C are the ends. Square brackets hold non-standard residues; d marks the D form. Peptide text beside a SMILES is read from it. R8 = C=CCCCCCC[C@@](C)(N)C(=O)O; S5 = C=CCCC[C@](C)(N)C(=O)O; Nle = CCCC[C@H](N)C(=O)O
READOUT_KIND: 18 h Avg % max inhibition at top conc (HIF Rptr-24 hrs normoxia) (μM)

{"COMPOUND": "CCCC[C@H](NC(=O)[C@H](CCC(=O)O)NC(=O)[C@@H](NC(=O)[C@@H](NC(=O)[C@H](CC(C)C)NC(=O)[C@]1(C)CCCC=CCCC[C@](C)(NC(=O)[C@H](C)NC(=O)[C@H](CC(=O)O)NC(=O)[C@@H](NC(=O)[C@H](Cc2ccccc2)NC(C)=O)[C@@H](C)CC)C(=O)N[C@@H](C(C)C)C(=O)N[C@@H](CC(C)C)C(=O)N[C@@H](CCCC)C(=O)N1)C(C)C)[C@@H](C)CC)C(=O)N[C@@H](C)C(=O)N[C@@H](CC(C)C)C(N)=O [SP-148] (Ac-FIDA[S5]VL[Nle][S5]LVIE[Nle]AL-NH2; staple 5-9)", "VAL": "+++ (≤25 but <50: +++)"}
{"COMPOUND": "CC[C@H](C)[C@H](NC(=O)[C@H](Cc1ccccc1)NC(C)=O)C(=O)N[C@@H](CC(=O)O)C(=O)N[C@@H](CCC(=O)O)C(=O)N[C@@]1(C)CCCC=CCCC[C@@](C)(C(=O)N[C@@H](CC(C)C)C(=O)N[C@H](C(=O)N[C@H](C(=O)N[C@@H](CCC(=O)O)C(=O)N[C@@H](CCSC)C(=O)N[C@@H](C)C(=O)N[C@@H](CC(C)C)C(N)=O)[C@@H](C)CC)C(C)C)NC(=O)[C@H](CCSC)NC(=O)[C@H](CC(C)C)NC(=O)[C@H](C(C)C)NC1=O [SP-110] (Ac-FIDE[S5]VLM[S5]LVIEMAL-NH2; staple 5-9)", "VAL": "+++ (≤25 but <50: +++)"}
{"COMPOUND": "CCCC[C@@H]1NC(=O)[C@H](CC(C)C)NC(=O)[C@](C)(NC(=O)[C@H](CCC(=O)O)NC(=O)[C@H](CCC(=O)O)NC(=O)[C@H](CC(=O)O)NC(=O)[C@@H](NC(=O)[C@H](Cc2ccccc2)NC(C)=O)[C@@H](C)CC)CCCCCCC=CCCC[C@@](C)(C(=O)N[C@@H](CCCC)C(=O)N[C@@H](C)C(=O)N[C@@H](CC(C)C)C(N)=O)NC(=O)[C@H]([C@@H](C)CC)NC(=O)[C@H](C(C)C)NC(=O)[C@H](CC(C)C)NC(=O)[C@H](CO)NC1=O [SP-199] (Ac-FIDEE[R8]L[Nle]SLVI[S5][Nle]AL-NH2; staple 6-13)", "VAL": "+ (<10: +)"}
{"COMPOUND": "CC[C@H](C)[C@H](NC(=O)[C@H](Cc1ccccc1)NC(C)=O)C(=O)N[C@H](C(=O)N[C@@H](CCC(=O)O)C(=O)N[C@@H](CCC(=O)O)C(=O)N[C@H](C(=O)N[C@@H](CC(C)C)C(=O)N[C@@H](CCSC)C(=O)N[C@@]1(C)CCCC=CCCC[C@@](C)(C(=O)N[C@@H](CCSC)C(=O)N[C@@H](C)C(=O)N[C@@H](CC(C)C)C(N)=O)NC(=O)[C@H]([C@@H](C)CC)NC(=O)[C@H](C(C)C)NC(=O)[C@H](CC(C)C)NC1=O)C(C)C)[C@@H](C)O [SP-231] (Ac-FITEEVLM[S5]LVI[S5]MAL-NH2; staple 9-13)", "VAL": "+ (<10: +)"}

* * *

- Test system: HRE-bla ME-180 cells
- ASSAY_REMARKS: Reporter gene assay (HRE-bla ME-180 HIF reporter, GeneBLAzer)
- Type: cell-based, human
- PROTOCOL_CONDITIONS: 24 hour normoxia
READOUT_KIND: EC50

Give the measured EC50 for CCCC[C@@H]1NC(=O)[C@H](CC(C)C)NC(=O)[C@H](C(C)C)NC(=O)[C@@](C)(NC(=O)[C@H](CCC(=O)O)NC(=O)[C@H](CC(=O)O)NC(=O)[C@@H](NC(=O)[C@H](Cc2ccccc2)NC(C)=O)[C@@H](C)CC)CCCC=CCCCC2(CCCC=CCCC[C@](C)(C(=O)N[C@@H](CCCC)C(=O)N[C@@H](C)C(=O)N[C@@H](CC(C)C)C(N)=O)NC(=O)[C@H]([C@@H](C)CC)NC(=O)[C@H](C(C)C)NC(=O)[C@H](CC(N)=O)NC2=O)NC1=O (stereo partly shown)
5 to 15 µM

* * *

- Tested on: HRE-bla ME-180 cells
- ASSAY_REMARKS: Reporter gene assay (HRE-bla ME-180 HIF reporter, GeneBLAzer)
- Format: cell-based, human
- PROTOCOL_CONDITIONS: 18 h; at top conc; 24 hrs normoxia
Bridge positions count the residues as written; N and C are the ends. Square brackets hold non-standard residues; d marks the D form. Peptide text beside a SMILES is read from it. R8 = C=CCCCCCC[C@@](C)(N)C(=O)O; S5 = C=CCCC[C@](C)(N)C(=O)O; Nle = CCCC[C@H](N)C(=O)O
READOUT_KIND: 18 h Avg % max inhibition at top conc (HIF Rptr-24 hrs normoxia) (μM)

{"COMPOUND": "CCCC[C@H](NC(=O)[C@H](CCC(=O)O)NC(=O)[C@@H](NC(=O)[C@@H](NC(=O)[C@H](C)NC(=O)[C@]1(C)CCCC=CCCC[C@](C)(NC(=O)[C@H](CCC(=O)O)NC(=O)[C@H](CC(=O)O)NC(=O)[C@@H](NC(=O)[C@H](Cc2ccccc2)NC(C)=O)[C@@H](C)CC)C(=O)N[C@@H](C(C)C)C(=O)N[C@@H](CC(C)C)C(=O)N[C@@H](CCCC)C(=O)N1)C(C)C)[C@@H](C)CC)C(=O)N[C@@H](C)C(=O)N[C@@H](CC(C)C)C(N)=O [SP-142] (Ac-FIDE[S5]VL[Nle][S5]AVIE[Nle]AL-NH2; staple 5-9)", "MEASURED_TARGET": "HRE-bla ME-180 cells", "VAL": "+++ (≤25 but <50: +++)"}
{"COMPOUND": "CC[C@H](C)[C@H](NC(=O)[C@H](Cc1ccccc1)NC(C)=O)C(=O)N[C@@H](CC(=O)O)C(=O)N[C@@H](CCC(=O)O)C(=O)N[C@]1(C)CCCCCCC=CCCC[C@@](C)(C(=O)N[C@@H](CCC(=O)O)C(=O)N[C@@H](CCSC)C(=O)N[C@@H](C)C(=O)N[C@@H](CC(C)C)C(=O)N[C@@H](CC(=O)O)C(N)=O)NC(=O)[C@H](C(C)C)NC(=O)[C@H](CC(C)C)NC(=O)[C@H](CO)NC(=O)[C@H](CCSC)NC(=O)[C@H](CC(C)C)NC(=O)[C@H](C(C)C)NC1=O [SP-176] (Ac-FIDE[R8]VLMSLV[S5]EMALD-NH2; staple 5-12)", "MEASURED_TARGET": "HRE-bla ME-180 cells", "VAL": "++++ (≥50: ++++)"}
{"COMPOUND": "CC[C@H](C)[C@H](NC(=O)[C@H](Cc1ccccc1)NC(C)=O)C(=O)N[C@@H](CC(=O)O)C(=O)N[C@@H](CCC(=O)O)C(=O)N[C@@]1(C)CCCC=CCCC[C@@](C)(C(=O)N[C@@H](CC(C)C)C(=O)N[C@H](C(=O)N[C@H](C(=O)N[C@@H](CCC(=O)O)C(=O)N[C@@H](CCSC)C(=O)N[C@@H](C)C(=O)N[C@@H](C)C(=O)N[C@@H](C)C(N)=O)[C@@H](C)CC)C(C)C)NC(=O)[C@H](CCSC)NC(=O)[C@H](CC(C)C)NC(=O)[C@H](C(C)C)NC1=O [SP-117] (Ac-FIDE[S5]VLM[S5]LVIEMAAA-NH2; staple 5-9)", "MEASURED_TARGET": "HRE-bla ME-180 cells", "VAL": "+++ (≤25 but <50: +++)"}
{"COMPOUND": "CCCC[C@H](NC(=O)[C@H](CCC(=O)O)NC(=O)[C@@H](NC(=O)[C@@H](NC(=O)[C@H](CC(N)=O)NC(=O)[C@]1(C)CCCC=CCCC[C@](C)(NC(=O)[C@H](CCC(=O)O)NC(=O)[C@H](CC(=O)O)NC(=O)[C@@H](NC(=O)[C@H](Cc2ccccc2)NC(C)=O)[C@@H](C)CC)C(=O)N[C@@H](C(C)C)C(=O)N[C@@H](CC(C)C)C(=O)N[C@@H](CCCC)C(=O)N1)C(C)C)[C@@H](C)CC)C(=O)N[C@@H](C)C(=O)N[C@@H](CC(C)C)C(N)=O [SP-143] (Ac-FIDE[S5]VL[Nle][S5]NVIE[Nle]AL-NH2; staple 5-9)", "MEASURED_TARGET": "HRE-bla ME-180 cells", "VAL": "++++ (≥50: ++++)"}
{"COMPOUND": "CCCC[C@H](NC(=O)[C@H](CCC(=O)O)NC(=O)[C@@H](NC(=O)[C@@H](NC(=O)[C@H](CC(C)C)NC(=O)[C@]1(C)CCCC=CCCC[C@](C)(NC(=O)[C@H](CCC(=O)O)NC(=O)[C@H](CC(=O)O)NC(=O)[C@@H](NC(=O)[C@H](Cc2ccccc2)NC(C)=O)[C@@H](C)CC)C(=O)N[C@@H](C)C(=O)N[C@@H](CC(C)C)C(=O)N[C@@H](CCCC)C(=O)N1)C(C)C)[C@@H](C)CC)C(=O)N[C@@H](C)C(=O)N[C@@H](CC(C)C)C(N)=O [SP-138] (Ac-FIDE[S5]AL[Nle][S5]LVIE[Nle]AL-NH2; staple 5-9)", "MEASURED_TARGET": "HRE-bla ME-180 cells", "VAL": "+++ (≤25 but <50: +++)"}

Quote HRE-bla ME-180 cells 18 h Avg % max inhibition at top conc (HIF Rptr-24 hrs normoxia) (μM) for entry CCCC[C@H](NC(=O)[C@H](CCC(=O)O)NC(=O)[C@@H](NC(=O)[C@@H](NC(=O)[C@H](CO)NC(=O)[C@]1(C)CCCC=CCCC[C@](C)(NC(=O)[C@H](CCC(=O)O)NC(=O)[C@H](CC(=O)O)NC(=O)[C@@H](NC(=O)[C@H](Cc2ccccc2)NC(C)=O)[C@@H](C)CC)C(=O)N[C@@H](C(C)C)C(=O)N[C@@H](CC(C)C)C(=O)N[C@@H](CCCC)C(=O)N1)C(C)C)[C@@H](C)CC)C(=O)N[C@@H](C)C(=O)N[C@@H](CC(C)C)C(N)=O [SP-144] (Ac-FIDE[S5]VL[Nle][S5]SVIE[Nle]AL-NH2; staple 5-9) .
++++ (≥50: ++++)

Given CC[C@H](C)[C@H](NC(=O)[C@H](Cc1ccccc1)NC(C)=O)C(=O)N[C@@H](CC(=O)O)C(=O)N[C@@H](CCC(=O)O)C(=O)N[C@@]1(C)CCCC=CCCC[C@@](C)(C(=O)N[C@@H](CC(C)C)C(=O)N[C@H](C(=O)N[C@H](C(=O)N[C@@H](CCC(=O)O)C(=O)N[C@@H](CCSC)C(=O)N[C@@H](C)C(=O)N[C@@H](C)C(N)=O)[C@@H](C)CC)C(C)C)NC(=O)[C@H](CCSC)NC(=O)[C@H](CC(C)C)NC(=O)[C@H](C(C)C)NC1=O [SP-116] (Ac-FIDE[S5]VLM[S5]LVIEMAA-NH2; staple 5-9) , report its 18 h Avg % max inhibition at top conc (HIF Rptr-24 hrs normoxia) (μM) on HRE-bla ME-180 cells.
+++ (≤25 but <50: +++)

meta.source: patent US20190225650A1
